Test system: HCV replicon 1AY93H
MEASUREMENT_NOTES: Cell-based HCV Replicon Assay A, replicon 1AY93H
PROTOCOL_CONDITIONS: read-out: 1A Y93H IC50, replicon 1AY93H
QUANTITY_MEASURED: IC50 (nM)
One number for each entry, in nM.

{"COMPOUND": "COC(=O)N[C@H](C(=O)N1CCC[C@H]1c1ncc(-c2cc(F)c3c(c2)OC(c2nc(C4CC4)cs2)n2c-3cc3cc(-c4cnc([C@@H]5CCCN5C(=O)[C@@H](NC(=O)OC)C(C)C)[nH]4)ccc32)[nH]1)C(C)C (single isomer, unassigned) [Compound 11]", "VALUE_UNITS": "nM", "REPORTED": 14.4}

query: # lookup: IC50 of CCCc1ncc(C2Oc3cc(-c4cnc([C@@H]5CCCN5C(=O)[C@@H](NC(=O)OC)C(C)C)[nH]4)cc(F)c3-c3cc4cc(-c5cnc([C@@H]6CCCN6C(=O)[C@@H](NC(=O)OC)C(C)C)[nH]5)ccc4n32)s1 (some centres unmarked) [Compound 16]
result: 0.083

* * *

Test system: HCV replicon 1AQ30D
MEASUREMENT_NOTES: Cell-based HCV Replicon Assay B, replicon 1AQ30D
PROTOCOL_CONDITIONS: Hepatitis C virus, read-out: 1A Q30D IC50 (nM), replicon 1AQ30D
Kindly supply the reported IC50 values for the records listed here.
One number for each entry, in nM.

{"MOLECULE": "COC(=O)N[C@H](C(=O)N1CCC[C@H]1c1ncc(-c2cc(C)c3c(c2)OC(c2cnc(C4CCC4)s2)n2c-3cc3cc(-c4cnc([C@@H]5C[C@H]6C[C@H]6N5C(=O)[C@@H](NC(=O)OC)C(C)(C)F)[nH]4)ccc32)[nH]1)C(C)C (single isomer, unassigned)", "TEST_TARGET": "HCV replicon 1AQ30D", "VALUE_UNITS": "nM", "REPORTED": 0.216}

Look up IC50 for the entries below, preserving their order.
1. COC(=O)N[C@H](C(=O)N1CCC[C@H]1c1ncc(-c2cc(F)c3c(c2)OC(c2cnc(C4(C)CCOCC4)s2)n2c-3cc3cc(-c4cnc([C@@H]5CCCN5C(=O)[C@@H](NC(=O)OC)C(C)C)[nH]4)ccc32)[nH]1)C(C)C (mixture of isomers)
2. COC(=O)N[C@H](C(=O)N1CCC[C@H]1c1ncc(-c2cc(C)c3c(c2)OC(c2cnc(C4CCC4)s2)n2c-3cc3cc(-c4cnc([C@@H]5CCCN5C(=O)[C@@H](NC(=O)OC)C(C)C)[nH]4)ccc32)[nH]1)C(C)C (single isomer, unassigned)
3. COC(=O)NC(C(=O)N1CCC[C@H]1c1ncc(-c2ccc3c(c2)cc2n3C(c3nc(C(F)(F)F)cs3)Oc3cc(-c4cnc([C@@H]5CCCN5C(=O)[C@@H](NC(=O)OC)C(C)C)[nH]4)cc(F)c3-2)[nH]1)C1C[C@@H](C)O[C@@H](C)C1 (single isomer, unassigned)

result:
1. 0.559
2. 0.772
3. 0.422

Field: IC50. Fill in for each record below.
1. COC(=O)N[C@H](C(=O)N1CCC[C@H]1c1ncc(-c2cc(F)c3c(c2)OC(c2csc(C4CC4)n2)n2c-3cc3cc(-c4cnc([C@@H]5CCCN5C(=O)[C@@H](NC(=O)OC)C(C)C)[nH]4)ccc32)[nH]1)C(C)C (single isomer, unassigned)
2. CCCc1ncc(C2Oc3cc(-c4cnc([C@@H]5CCCN5C(=O)[C@@H](NC(=O)OC)C(C)C)[nH]4)cc(F)c3-c3cc4cc(-c5cnc([C@@H]6CCCN6C(=O)[C@@H](NC(=O)OC)C(C)C)[nH]5)ccc4n32)s1 (stereo partly drawn)
3. COC(=O)N[C@H](C(=O)N1CCC[C@H]1c1ncc(-c2cc(F)c3c(c2)OC(c2cnc(C4(C)CC4)s2)n2c-3cc3cc(-c4cnc([C@@H]5CCCN5C(=O)[C@@H](NC(=O)OC)C(C)C)[nH]4)ccc32)[nH]1)C(C)C (single isomer, unassigned)

result:
1.6
0.118
0.847

Give me IC50 for each of these molecules, listed below.
1. COC(=O)N[C@H](C(=O)N1CCC[C@H]1c1ncc(-c2cc(F)c3c(c2)OC(c2cnc(OC)s2)n2c-3cc3cc(-c4cnc([C@@H]5CCCN5C(=O)[C@@H](NC(=O)OC)C(C)C)[nH]4)ccc32)[nH]1)C(C)C (single isomer, unassigned)
2. COC(=O)NC(C(=O)N1CCC[C@H]1c1ncc(-c2ccc3c(c2)cc2n3C(c3cnc(C4CCC4)s3)Oc3cc(-c4cnc([C@@H]5CCCN5C(=O)[C@@H](NC(=O)OC)C(C)C)[nH]4)cc(C)c3-2)[nH]1)C1C[C@@H](C)O[C@H](C)C1 (single isomer, unassigned)

result:
[0.115, 0.046]

* * *

System: HCV replicon 1B
MEASUREMENT_NOTES: Cell-based HCV Replicon Assay B, replicon 1B
PROTOCOL_CONDITIONS: Hepatitis C virus
QUANTITY_MEASURED: IC50 (pM)
Numbers only, in pM.

{"COMPOUND": "COC(=O)NC(C(=O)N1CCC[C@H]1c1ncc(-c2ccc3c(c2)cc2n3C(c3cnc(C4(C)CC4)s3)Oc3cc(-c4cnc([C@@H]5CCCN5C(=O)[C@@H](NC(=O)OC)C(C)C)[nH]4)cc(F)c3-2)[nH]1)C1C[C@@H](C)O[C@@H](C)C1 (single isomer, unassigned) [Compound 461]", "VALUE_UNITS": "pM", "IC50": 3.8}
{"COMPOUND": "COC(=O)N[C@H](C(=O)N1CCC[C@H]1c1ncc(-c2cc(F)c3c(c2)OC(c2ncc(-c4ccc(C#N)cc4)s2)n2c-3cc3cc(-c4cnc([C@@H]5CCCN5C(=O)[C@@H](NC(=O)OC)C(C)C)[nH]4)ccc32)[nH]1)C(C)C (single isomer, unassigned) [Compound 43]", "VALUE_UNITS": "pM", "IC50": 2}

Give IC50 for each listed item.
1. COC(=O)NC(C(=O)N1CCC[C@H]1c1ncc(-c2ccc3c(c2)cc2n3C(c3cnc(C4CC4)s3)Oc3cc(-c4cnc([C@@H]5CCCN5C(=O)[C@@H](NC(=O)OC)C(C)C)[nH]4)cc(C)c3-2)[nH]1)C1CCOC(C)(C)C1 (single isomer, unassigned) [Compound 214]
2. COC(=O)N[C@H](C(=O)N1CCC[C@H]1c1ncc(-c2cc(F)c3c(c2)OC(c2cnc(C4CC4)s2)n2c-3cc3cc(-c4cnc([C@@H]5CCCN5C(=O)[C@@H](NC(=O)OC)C(C)C)[nH]4)ccc32)[nH]1)C(C)C (single isomer, unassigned) [Compound 10]

result:
[8, 2]

* * *

Give IC50 for every item shown.
System: HCV replicon 1B
MEASUREMENT_NOTES: Cell-based HCV Replicon Assay B, replicon 1B
PROTOCOL_CONDITIONS: Hepatitis C virus
Answers are plain numbers, in pM.

Sample records with IC50:
{"COMPOUND": "COC(=O)N[C@H](C(=O)N1CCC[C@H]1c1ncc(-c2cc(F)c3c(c2)OC(c2csnn2)n2c-3cc3cc(-c4cnc([C@@H]5CCCN5C(=O)[C@@H](NC(=O)OC)C(C)C)[nH]4)ccc32)[nH]1)C(C)C (mixture of isomers)", "REPORTED": 3.6}
{"COMPOUND": "COC(=O)N[C@H](C(=O)N1CCC[C@H]1c1ncc(-c2cc(F)c3c(c2)OC(c2nc4c(s2)CCCC4)n2c-3cc3cc(-c4cnc([C@@H]5CCCN5C(=O)[C@@H](NC(=O)OC)C(C)C)[nH]4)ccc32)[nH]1)C(C)C (single isomer, unassigned)", "REPORTED": 864}
{"COMPOUND": "COC(=O)NC(C(=O)N1[C@@H]2C[C@@H]2C[C@H]1c1ncc(-c2ccc3c(c2)cc2n3C(c3cnc(C4CC4)s3)Oc3cc(-c4cnc([C@@H]5CCCN5C(=O)[C@@H](NC(=O)OC)C(C)C)[nH]4)cc(F)c3-2)[nH]1)C(C)(C)F (single isomer, unassigned)", "REPORTED": 2}

Could you now consider this next compound?
query: Given the entry COC(=O)NC(C(=O)N1CCC[C@H]1c1ncc(-c2ccc3c(c2)cc2n3C(c3cnc(C(C)C)s3)Oc3cc(-c4cnc([C@@H]5CCCN5C(=O)[C@@H](NC(=O)OC)C(C)C)[nH]4)cc(F)c3-2)[nH]1)C1C[C@@H](C)O[C@@H](C)C1 (single isomer, unassigned) , report its measured IC50.
result: 1

* * *

System: HCV replicon 1AY93H
MEASUREMENT_NOTES: Cell-based HCV Replicon Assay A, replicon 1AY93H
PROTOCOL_CONDITIONS: read-out: 1A Y93H IC50, replicon 1AY93H
QUANTITY_MEASURED: IC50 (nM)
Numbers only, in nM.

{"COMPOUND": "CCCc1ncc(C2Oc3cc(-c4cnc([C@@H]5CCCN5C(=O)[C@@H](NC(=O)OC)C(C)C)[nH]4)cc(F)c3-c3cc4cc(-c5cnc([C@@H]6C[C@H]7C[C@H]7N6C(=O)[C@@H](NC(=O)OC)C(C)C)[nH]5)ccc4n32)s1 (single isomer, unassigned) [Compound 91]", "IC50 / nM": 0.0537}

Now, please, on to the next compound.
query: Hello, I am looking for reported IC50 with HCV replicon 1AY93H for COC(=O)NC(C(=O)N1[C@@H]2C[C@@H]2C[C@H]1c1ncc(-c2ccc3c(c2)cc2n3C(c3cnc(CC(C)C)s3)Oc3cc(-c4cnc([C@@H]5CCCN5C(=O)[C@@H](NC(=O)OC)C(C)C)[nH]4)cc(F)c3-2)[nH]1)C1C[C@@H](C)O[C@@H](C)C1 (single isomer, unassigned) [Compound 441] . Could you help?
result: 0.003
